System: Fibroblast
MEASUREMENT PROTOCOL: Incucyte cell viability with human fibroblast; further: unitless GR value; below 1 slowed growth and below 0 cell loss
Assay type: toxicity, cell-based
CONDITIONS: 24 h, 10 µM, compound concentration 10 uM, replicate number 1
Peptide text beside a SMILES is read from it. * marks the point of attachment. Cbz = O=C(OCc1ccccc1)*; CH2F = FC*
Could you mark each record rule met if its Growth Rate falls strictly under 0.4, and rule not met if it equals or exceeds it?

Use the examples below as a reference point.
CN1CCN(c2ccc3nc(-c4c(N)c5c(F)cccc5[nH]c4=O)[nH]c3c2)CC1 [DOVITINIB]: rule not met
CC#C[C@]1(O)CC[C@H]2[C@@H]3CCC4=CC(=O)CCC4=C3[C@@H](c3ccc(N(C)C)cc3)C[C@@]21C [MIFEPRISTONE]: rule not met
Cn1ncc2c(-c3c(-c4ccc(F)cn4)nn4c3COC(C)(C)C4)ccnc21: rule not met
C=C(C)[C@@H](CC=C(C)C)C[C@@]12C[C@@H](CC=C(C)C)C(C)(C)[C@@](CC=C(C)C)(C(=O)C(C(=O)c3ccc(O)c(O)c3)=C1O)C2=O [GARCINOL]: rule met
COC(=O)CC[C@H](NC(=O)[C@H](C)NC(=O)OCc1ccccc1)C(=O)N[C@H](C(=O)N[C@@H](CC(=O)OC)C(=O)CF)C(C)C (Cbz-AE(OMe)VD(OMe)-CH2F): rule met

Would you kindly look at the next entry?
INPUT: # strict comparison: is reported Growth Rate < 0.4? input = N#Cc1ccc([C@H]2CCCC[C@H]2O)cc1C(F)(F)F
OUTPUT: rule met

----------
System: U2OS
MEASUREMENT PROTOCOL: Incucyte cell viability with U2OS; further: unitless GR value; below 1 slowed growth and below 0 cell loss
Assay type: toxicity, cell-based
CONDITIONS: human, 24 h, 10 µM, compound concentration 10 uM, replicate number 2
Threshold-based label: Growth Rate under 0.8 gives 1 (yes), Growth Rate not under 0.8 gives 0 (no).

CC(C)n1nc(-c2cc3cc(O)ccc3[nH]2)c2c(N)ncnc21: 1 (yes)
O=C(NO)c1ccc(CN(c2cnccn2)c2cnccn2)cc1: 0 (no)
CN1CCc2c(n(Cc3ccc(C(=O)NO)cc3)c3ccccc23)C1: 0 (no)

INPUT: Growth Rate strictly < 0.8 for this molecule? C/C=C1\NC(=O)[C@H]2CSSCC/C=C/[C@H](CC(=O)N[C@H](C(C)C)C(=O)N2)OC(=O)[C@H](C(C)C)NC1=O
OUTPUT: 1 (yes)

INPUT: Quick check: Growth Rate of CC1(C)c2cccc(C(=O)NO)c2CN1c1cnc(C(F)(F)F)cn1 under 0.8?
OUTPUT: 0 (no)

INPUT: Is the reported Growth Rate for CCS(=O)(=O)N1CC(CC#N)(n2cc(-c3ncnc4[nH]ccc34)cn2)C1 strictly below 0.8?
OUTPUT: 1 (yes)

INPUT: Lab note: confirm whether the reported Growth Rate for this molecule is below 0.8, equality not counting. molecule: CC(C)C[C@@H](C=O)NC(=O)[C@@H](NS(=O)(=O)c1ccc(F)cc1)C(C)C
OUTPUT: 0 (no)

INPUT: Please let me know if C=CC(=O)Nc1cccc(-c2c[nH]cc2CN(C)CCN)c1 shows Growth Rate below 0.8.
OUTPUT: 0 (no)

INPUT: Input Cc1cc(OCc2nnc(SC3CCCC3)n2-c2cccnc2)ccc1-c1ccc(S(C)(=O)=O)cc1 ; condition: Growth Rate strictly below 0.8. Does it hold?
OUTPUT: 1 (yes)

INPUT: Hi there! Is Growth Rate for COc1ccc(/C=C/C(=O)NO)c(-c2ccc(-c3ccccc3)cc2)c1 below 0.8, do you know?
OUTPUT: 0 (no)
